Exercise: state measured pKi for each of the molecules provided.
# Subject of test: SmCA (Schistosoma mansoni, UniProt A0A4Y5UX87)
# Construct: rSmCA N21-A298, signal peptide and C-terminal GPI-anchoring signal removed; Igk leader, C-terminal myc and His6 tags; secreted by CHO-S cells, IMAC; codon-optimized gene; native ~37 kDa GPI-linked glycoprotein
# Sequence (A0A4Y5UX87 21-298): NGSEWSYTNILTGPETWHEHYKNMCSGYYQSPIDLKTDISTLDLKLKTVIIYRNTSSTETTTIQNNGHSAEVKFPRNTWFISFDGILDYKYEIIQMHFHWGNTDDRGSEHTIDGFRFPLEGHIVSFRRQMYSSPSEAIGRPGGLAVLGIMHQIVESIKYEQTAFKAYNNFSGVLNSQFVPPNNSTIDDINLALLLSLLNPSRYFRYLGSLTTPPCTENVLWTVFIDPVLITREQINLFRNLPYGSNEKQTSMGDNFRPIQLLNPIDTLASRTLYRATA
# Procedure summary: stopped-flow CO2 hydrase assay
# Format: biochemical
# Test context: read-out: SmCA ^b
Friendly reminder that pKi comes from taking -log10 of the concentration in mol/L.

stdin: Give its pKi value. Item: NS(=O)(=O)c1cccc(S(N)(=O)=O)c1
stdout: 6.04

stdin: Give its pKi value. Item: NS(=O)(=O)c1ccc(CCO)cc1
stdout: 6.22

stdin: Give its pKi value. Item: Nc1cc(Cl)c(S(N)(=O)=O)cc1S(N)(=O)=O
stdout: 6.19

stdin: Give its pKi value. Item: Nc1ccc(S(=O)(=O)Nc2ccc(S(N)(=O)=O)cc2)cc1
stdout: 6.26

stdin: Give its pKi value. Item: Nc1ccc(S(=O)(=O)NCc2ccc(S(N)(=O)=O)cc2)cc1
stdout: 6.28

stdin: Give its pKi value. Item: Cn1nc(S(N)(=O)=O)sc1=N
stdout: 6.49

stdin: Give its pKi value. Item: Nc1ccc(S(=O)(=O)NCCc2ccc(S(N)(=O)=O)cc2)cc1
stdout: 6.74

stdin: Give its pKi value. Item: Nc1ccc(S(N)(=O)=O)cc1Cl
stdout: 6.13

Just for reference, paper PMC7084386 is where these values come from.
